# system: human Gal-1 (hGal-1)
# Sequence (P09382 2-135 limits assumed): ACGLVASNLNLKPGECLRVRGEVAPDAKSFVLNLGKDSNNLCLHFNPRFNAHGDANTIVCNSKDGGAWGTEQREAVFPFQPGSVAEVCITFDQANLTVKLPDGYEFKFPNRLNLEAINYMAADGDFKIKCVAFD
# protocol-text: Competitive binding assay: binding of biotinylated hGal-1 to microplate-adsorbed asialofetuin (ASF)
# reported-conditions: Activities on hGal-1; mean values of several measurements
Task for the reader: assign each of the following compounds its reported IC50.
The reply should be a number in nM, with the unit left off.

Q. Short answer please: IC50, human Gal-1 (hGal-1), entry CO[C@@H]1[C@@H](n2cc(-c3cc(F)c(F)c(F)c3)nn2)[C@@H](O)[C@@H](CO)O[C@@H]1C[C@H]1CN(C2CCN(C(C)=O)CC2)C(=O)O1 [Example 5.06]
A. 270

Q. And the next one, COCC(C)(C)c1cc(C[C@H]2O[C@H](CO)[C@H](O)[C@H](n3cc(-c4cc(F)c(F)c(F)c4)nn3)[C@H]2OC)on1 [Ex 1.314] ?
A. 1380

====

# system: human Gal-1 (hGal-1)
# protocol-text: Competitive binding assay: binding of biotinylated hGal-1 to microplate-adsorbed asialofetuin (ASF)
# reported-conditions: Activities on hGal-1; mean values of several measurements
Task for the reader: assign each of the following compounds its reported IC50.
The reply should be a number in µM, with the unit left off.

Q. Item C#Cc1ccc(-c2cn([C@H]3[C@@H](O)[C@@H](CO)O[C@H](Cc4cc(C(C)(C)C)on4)[C@@H]3OC)nn2)c(F)c1F has what recorded IC50?
A. 4.4

Q. And the next one, CO[C@@H]1[C@@H](n2cc(-c3cc(F)cc(Cl)c3)nn2)[C@@H](O)[C@@H](CO)O[C@@H]1Cc1cc(C2CCN(S(C)(=O)=O)CC2)on1 ?
A. 0.73

Q. And the next one, CO[C@@H]1[C@@H](n2cc(-c3cc(F)c(F)c(F)c3)nn2)[C@@H](O)[C@@H](CO)O[C@@H]1Cc1cc(C23CCC(NC(=O)OC(C)(C)C)(CC2)CC3)on1 ?
A. 18.1

====

// values below are IC50; system is human Gal-3 (hGal-3) (Homo sapiens (Human), UniProt P17931)
Sequence (P17931 whole entry): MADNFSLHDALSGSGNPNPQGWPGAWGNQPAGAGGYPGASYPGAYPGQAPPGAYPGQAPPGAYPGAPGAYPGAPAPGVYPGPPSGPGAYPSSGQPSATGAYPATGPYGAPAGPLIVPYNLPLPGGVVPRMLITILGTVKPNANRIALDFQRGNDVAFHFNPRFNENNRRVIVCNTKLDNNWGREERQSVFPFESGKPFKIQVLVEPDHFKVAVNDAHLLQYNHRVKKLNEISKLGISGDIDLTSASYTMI
The reply should be a number in nM, with the unit left off.

Q. Item CO[C@@H]1[C@@H](n2cc(-c3cc(F)c(F)c(F)c3)nn2)[C@@H](O)[C@@H](CO)O[C@H]1Cc1cn(C2CCN(C(C)=O)CC2)nn1 [Example 4.12] has what recorded IC50?
A. 700

Q. And the next one, CO[C@@H]1[C@@H](n2cc(-c3ccc(Cl)c(F)c3)nn2)[C@@H](O)[C@@H](CO)O[C@@H]1Cc1cc(C2CCN(C(=O)OC(C)(C)C)CC2)on1 [Ex 1.121] ?
A. 82

Q. And the next one, CC(C)(C)OC(=O)N1CCCC(c2cc(C[C@H]3O[C@H](CO)[C@H](O)[C@H](n4cc(-c5cc(F)c(F)c(F)c5)nn4)[C@H]3O)no2)C1 (stereo partly drawn) [Ex 1.54] ?
A. 290

Q. And the next one, CO[C@@H]1[C@@H](n2cc(-c3ccc(F)c(F)c3F)nn2)[C@@H](O)[C@@H](CO)O[C@@H]1Cc1cc(C(C)(C)O)on1 [Ex 1.232] ?
A. 100

Q. And the next one, CO[C@@H]1[C@@H](n2cc(-c3ccc4ccccc4c3)nn2)[C@@H](O)[C@@H](CO)O[C@@H]1CC1CC(C2CCN(C(=O)OC(C)(C)C)CC2)=NO1 (stereo partly drawn) [Ex 1.304] ?
A. 1620

Q. And the next one, CO[C@@H]1[C@@H](n2cc(-c3cc(F)c(F)c(F)c3)nn2)[C@@H](O)[C@@H](CO)O[C@@H]1Cn1cc(C2(C#N)CCCC2)nn1 [Example 4.50] ?
A. 330
